Please go through the items and note down their composite z-score.
# Tested on: Noggin (protein binding on small-molecule microarray)
# Method: Noggin binders on small-molecule microarray, primary screen, biochemical, 635/667 nm fluorescence (AID 1095);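 also: score merges 667 nm feature fluorescence with signal to noise over triplicate slides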
# Assay Setup: 635 nm fluorescence, higher = more signal
Numbers only.

Consider the following illustrative entries.
| Entry Smiles | Measured On | composite z-score |
| --- | --- | --- |
| C[C@@]1([C@@H](NC(=O)c2ccccc2)c2ccc(-c3ccccc3)cc2)C[C@H]1C1CCCCC1 | Noggin (protein binding on small-molecule microarray) | -0.992 |
| C=CCN1C(=O)[C@]2(O[C@H](CCO)[C@@H]([Si](C)(C)c3ccc(OC)cc3)[C@@H]2C)c2cc(N3C(=O)c4cccc5cccc3c45)ccc21 | Noggin (protein binding on small-molecule microarray) | 1.69 |

Turning now to a further record.
GET /values?item= COc1ccc(C#Cc2ccc3c(c2)[C@]2(C(=O)N3)[C@H](c3ccccc3OCCO)N3[C@H](c4ccccc4)[C@H](c4ccccc4)OC(=O)[C@H]3[C@@H]2C(=O)O)cc1 &system= Noggin (protein binding on small-molecule microarray) returns composite z-score: 1.11
